recorded-endpoint: IC50 (nM)
Answer format: numeric, nM implied, no suffix.

Item Cn1c(=O)c2[nH]cnc2n(C)c1=O [theophylline, 1,3-dimethylxanthine] was tested on monoclonal antibody exposed on the surface of hybridoma cell line HB-8152; the reported IC50 is 250
